# Test system: Klebsiella pneumoniae
# run description: Antibacterial activity against Klebsiella pneumoniae ATCC 13883 assessed as diameter of inhibition zone at 1 mg/ml after 24 hrs by agar well diffusion method
# Format: functional
# condition set: ATCC 13883, 24 h, read-out: DIZ
zone of inhibition at 1000 µg/mL of 10 mm or higher: 1 (yes). Under 10 mm: 0 (no).

Q: Check this molecule for zone of inhibition at 1000 µg/mL at or above 10 mm: "O=C(O)CNC(=O)c1ccc(NC(=S)NNC(=O)c2ccncc2)cc1"
Result: 0 (no)

Q: Check this molecule for zone of inhibition at 1000 µg/mL at or above 10 mm: "O=C(O)CNC(=O)c1ccc(NC(=S)Nc2ccc(S(=O)(=O)Nc3nccs3)cc2)cc1"
Result: 0 (no)

Q: Check this molecule for zone of inhibition at 1000 µg/mL at or above 10 mm: "CC(=O)NS(=O)(=O)c1ccc(NC(=S)Nc2ccc(C(=O)NCC(=O)O)cc2)cc1"
Result: 0 (no)

Q: Check this molecule for zone of inhibition at 1000 µg/mL at or above 10 mm: "CCCCCCNC(=S)Nc1ccc(C(=O)NCC(=O)O)cc1"
Result: 1 (yes)

Q: Check this molecule for zone of inhibition at 1000 µg/mL at or above 10 mm: "NS(=O)(=O)c1ccc(NC(=S)Nc2ccc(C(=O)NCC(=O)O)cc2)cc1"
Result: 1 (yes)

Q: Check this molecule for zone of inhibition at 1000 µg/mL at or above 10 mm: "Cc1c(NC(=S)Nc2ccc(C(=O)NCC(=O)O)cc2)c(=O)n(-c2ccccc2)n1C"
Result: 1 (yes)

Q: Check this molecule for zone of inhibition at 1000 µg/mL at or above 10 mm: "O=C(O)CNC(=O)c1ccc(NC(=S)Nc2ccc(S(=O)(=O)Nc3ncccn3)cc2)cc1"
Result: 1 (yes)

Q: Check this molecule for zone of inhibition at 1000 µg/mL at or above 10 mm: "O=C(O)CNC(=O)c1ccc(NC(=S)Nc2ccc(F)cc2)cc1"
Result: 1 (yes)

----------
Exercise: for every item that follows, state its recorded zone of inhibition at 1000 µg/mL.
# Tested on: Micrococcus luteus
# run description: Antibacterial activity against Sarcina lutea assessed as diameter of inhibition zone at 1 mg/ml after 24 hrs by agar well diffusion method
# Assay type: functional
# condition set: read-out: DIZ
Number only, in mm; omit the unit.

Q: Need zone of inhibition at 1000 µg/mL, item "O=C(O)CNC(=O)c1ccc(NC(=S)Nc2ccc(C(=O)NCC(=O)O)cc2)cc1"
Result: 15

Q: Need zone of inhibition at 1000 µg/mL, item "O=C(O)CNC(=O)c1ccc(NC(=S)Nc2c3ccccc3nc3ccccc23)cc1"
Result: 0

Q: Need zone of inhibition at 1000 µg/mL, item "O=C(O)CNC(=O)c1ccc(NC(=S)NNC(=O)c2ccncc2)cc1"
Result: 24

Q: Need zone of inhibition at 1000 µg/mL, item "O=C(O)CNC(=O)c1ccc(NC(=S)Nc2ccc(NC(=S)Nc3ccc(C(=O)NCC(=O)O)cc3)cc2)cc1"
Result: 10

Q: Need zone of inhibition at 1000 µg/mL, item "O=C(O)CNC(=O)c1ccc(NC(=S)Nc2ccccc2C(=O)Nc2cccc(C(F)(F)F)c2)cc1"
Result: 0

Q: Need zone of inhibition at 1000 µg/mL, item "O=C(O)CNC(=O)c1ccc(NC(=S)Nc2ccc(S(=O)(=O)Nc3ccccn3)cc2)cc1"
Result: 0

Q: Need zone of inhibition at 1000 µg/mL, item "O=C(O)CNC(=O)c1ccc(NC(=S)NNC(=O)c2ccccc2)cc1"
Result: 20

Q: Need zone of inhibition at 1000 µg/mL, item "N=C(N)NS(=O)(=O)c1ccc(NC(=S)Nc2ccc(C(=O)NCC(=O)O)cc2)cc1"
Result: 0

Q: Need zone of inhibition at 1000 µg/mL, item "O=C(O)CNC(=O)c1ccc(NC(=S)Nc2cccc(Br)c2)cc1"
Result: 20

Q: Need zone of inhibition at 1000 µg/mL, item "O=C(O)CNC(=O)c1ccc(NC(=S)Nc2ccc(S(=O)(=O)Nc3nccs3)cc2)cc1"
Result: 0

Q: Need zone of inhibition at 1000 µg/mL, item "CCOc1ccc(NC(=O)c2ccccc2NC(=S)Nc2ccc(C(=O)NCC(=O)O)cc2)cc1"
Result: 0

Q: Need zone of inhibition at 1000 µg/mL, item "Cc1c(NC(=S)Nc2ccc(C(=O)NCC(=O)O)cc2)c(=O)n(-c2ccccc2)n1C"
Result: 24

Q: Need zone of inhibition at 1000 µg/mL, item "Nc1n[nH]c(NC(=S)Nc2ccc(C(=O)NCC(=O)O)cc2)c1/N=N/c1ccc(Cl)cc1"
Result: 30

Q: Need zone of inhibition at 1000 µg/mL, item "CC(=O)NS(=O)(=O)c1ccc(NC(=S)Nc2ccc(C(=O)NCC(=O)O)cc2)cc1"
Result: 0

Q: Need zone of inhibition at 1000 µg/mL, item "O=C(O)CNC(=O)c1ccc(NC(=S)Nc2cccc(F)c2)cc1"
Result: 20

Q: Need zone of inhibition at 1000 µg/mL, item "CCCCCCNC(=S)Nc1ccc(C(=O)NCC(=O)O)cc1"
Result: 24

Q: Need zone of inhibition at 1000 µg/mL, item "O=C(O)CNC(=O)c1ccc(NC(=S)Nc2ccc(F)cc2)cc1"
Result: 20

Q: Need zone of inhibition at 1000 µg/mL, item "O=C(O)CNC(=O)c1ccc(NC(=S)NNS(=O)(=O)c2ccccc2)cc1"
Result: 20

Q: Need zone of inhibition at 1000 µg/mL, item "O=C(O)CNC(=O)c1ccc(NC(=S)Nc2ccc(S(=O)(=O)Nc3ncccn3)cc2)cc1"
Result: 25

Q: Need zone of inhibition at 1000 µg/mL, item "Cc1ccc(NC(=S)Nc2ccc(C(=O)NCC(=O)O)cc2)cc1"
Result: 25

Q: Need zone of inhibition at 1000 µg/mL, item "O=C(O)CNC(=O)c1ccc(NC(=S)Nc2ccccc2)cc1"
Result: 0

Q: Need zone of inhibition at 1000 µg/mL, item "CCCCNC(=S)Nc1ccc(C(=O)NCC(=O)O)cc1"
Result: 9

Q: Need zone of inhibition at 1000 µg/mL, item "NS(=O)(=O)c1ccc(NC(=S)Nc2ccc(C(=O)NCC(=O)O)cc2)cc1"
Result: 20

----------
# Test system: Staphylococcus aureus
# run description: Antibacterial activity against Staphylococcus aureus ATCC 29213 assessed as diameter of inhibition zone at 1 mg/ml after 24 hrs by agar well diffusion method
# Type: functional
# condition set: ATCC 29213, 24 h, read-out: DIZ
attribute measured: zone of inhibition at 1000 µg/mL (mm)
Number only, in mm; omit the unit.

Q: Need zone of inhibition at 1000 µg/mL, item "Cc1c(NC(=S)Nc2ccc(C(=O)NCC(=O)O)cc2)c(=O)n(-c2ccccc2)n1C"
Result: 18

Q: Need zone of inhibition at 1000 µg/mL, item "O=C(O)CNC(=O)c1ccc(NC(=S)Nc2cccc(Br)c2)cc1"
Result: 31

Q: Need zone of inhibition at 1000 µg/mL, item "CCCCCCNC(=S)Nc1ccc(C(=O)NCC(=O)O)cc1"
Result: 0

----------
# Test system: Proteus vulgaris
# run description: Antibacterial activity against Proteus vulgaris after 24 hrs by two fold serial dilution technique
# Format: functional
Exercise: for every item that follows, state its recorded MIC.
Provide a numeric answer, followed by its unit.

Q: Need MIC, item "O=C(O)CNC(=O)c1ccc(NC(=S)Nc2cccc(Br)c2)cc1"
Result: 6.25 µg/mL

Q: Need MIC, item "O=C(O)CNC(=O)c1ccc(NC(=S)Nc2ccc(NC(=S)Nc3ccc(C(=O)NCC(=O)O)cc3)cc2)cc1"
Result: 25 µg/mL

Q: Need MIC, item "O=C(O)CNC(=O)c1ccc(NC(=S)Nc2cccc(F)c2)cc1"
Result: 12.5 µg/mL

Q: Need MIC, item "O=C(O)CNC(=O)c1ccc(NC(=S)Nc2ccc(S(=O)(=O)Nc3ncccn3)cc2)cc1"
Result: 12.5 µg/mL

Q: Need MIC, item "Nc1n[nH]c(NC(=S)Nc2ccc(C(=O)NCC(=O)O)cc2)c1/N=N/c1ccc(Cl)cc1"
Result: 6.25 µg/mL

----------
# Tested on: Klebsiella pneumoniae
# run description: Antibacterial activity against Klebsiella pneumoniae ATCC 13883 assessed as diameter of inhibition zone at 1 mg/ml after 24 hrs by agar well diffusion method
# Assay type: functional
# condition set: ATCC 13883, 24 h, read-out: DIZ
zone of inhibition at 1000 µg/mL of 20 mm or higher: true. Under 20 mm: false.

Q: Check this molecule for zone of inhibition at 1000 µg/mL at or above 20 mm: "Cc1ccc(NC(=S)Nc2ccc(C(=O)NCC(=O)O)cc2)cc1"
Result: false

Q: Check this molecule for zone of inhibition at 1000 µg/mL at or above 20 mm: "O=C(O)CNC(=O)c1ccc(NC(=S)Nc2ccccc2)cc1"
Result: false

Q: Check this molecule for zone of inhibition at 1000 µg/mL at or above 20 mm: "O=C(O)CNC(=O)c1ccc(NC(=S)NNS(=O)(=O)c2ccccc2)cc1"
Result: true

Q: Check this molecule for zone of inhibition at 1000 µg/mL at or above 20 mm: "Nc1n[nH]c(NC(=S)Nc2ccc(C(=O)NCC(=O)O)cc2)c1/N=N/c1ccc(Cl)cc1"
Result: true

Q: Check this molecule for zone of inhibition at 1000 µg/mL at or above 20 mm: "O=C(O)CNC(=O)c1ccc(NC(=S)Nc2c3ccccc3nc3ccccc23)cc1"
Result: true

Q: Check this molecule for zone of inhibition at 1000 µg/mL at or above 20 mm: "O=C(O)CNC(=O)c1ccc(NC(=S)Nc2cccc(Br)c2)cc1"
Result: true

The measurements presented in this section are drawn from ChEMBL document CHEMBL2385069.
